# MEASUREMENT_TARGET: T1, BIN1 SH3 domain (UniProt O00499 513-593)
# T1 construct: C-terminal SH3 domain of bridging integrator-1 (BIN1, amphiphysin 2); printed residues E556, E557, W562, F588 fit the 593-residue BIN1 isoform 1; Used 15N-labelled in the titrations and relaxation experiments; Construct limits, host and tags are in Malki et al., 2017; PDB 5i22 is a cited NMR structure of BIN1 SH3 in a complex, used as the starting point of the docking; also called SH3 domain of …
# T1 sequence: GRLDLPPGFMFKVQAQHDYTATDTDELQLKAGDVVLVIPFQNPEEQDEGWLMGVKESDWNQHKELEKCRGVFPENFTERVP
# MEASUREMENT_NOTES: NMR titration; 70 μM 15N-BIN1 SH3 titrated with unlabeled Tau (210–240) peptides (35 to 840 μM); 1H,15N HSQC chemical shift changes; 50 mM phosphate buffer pH 7.3, 20°C; Kd averaged over 7 resonances
# CONDITION: both partners purified
MEASURED_QUANTITY: Kd (µM)
# value in µM; strip the unit string

Documented Kd of SRTPSLPTPPTREPAAVAVVRTPPKSPSSAK (peptide, UniProt P10636-8 210-240, looked up, Tau residues 210-240 with K224A and K225A; probably as m2; also called the mutated peptide) [Tau (210–240) peptide with K224 and K225 mutated into alanines] : 429
